Taken from the supplement of paper PMC8882468.

test system: HCI-027 (organoid from a triple-negative breast cancer xenograft); assay: CTG-3D luminescence at 96 h relative to day-0 seeding control (ratio to day 0); higher = more growth / less cytotoxicity; PDxO 3D drug screen, 96 h, CTG-3D normalised to day-0 seeding control.; details: 625 fM; days in culture: 176
quantity: CTG-3D luminescence at 96 h

| inputSmiles | quantity | recordedNumber |
| --- | --- | --- |
| COc1cccc2c1C(=O)c1c(O)c3c(c(O)c1C2=O)C[C@@](O)(C(=O)CO)C[C@@H]3O[C@H]1C[C@H](N)[C@H](O)[C@H](C)O1 | CTG-3D luminescence at 96 h | 1.53 |
| O=C(c1ccc(F)c(F)c1Nc1ccc(I)cc1F)N1CC(O)([C@@H]2CCCCN2)C1 | CTG-3D luminescence at 96 h | 1.76 |
| CCc1c2c(nc3ccc(O)cc13)-c1cc3c(c(=O)n1C2)COC(=O)[C@]3(O)CC | CTG-3D luminescence at 96 h | 1.74 |
| C=CCn1c(=O)c2cnc(Nc3ccc(N4CCN(C)CC4)cc3)nc2n1-c1cccc(C(C)(C)O)n1 | CTG-3D luminescence at 96 h | 2.5 |
| CC(C)(C(=O)NCC(F)(F)C(F)(F)F)C(=O)N[C@@H]1C(=O)Nc2ccccc2-c2ccccc21 | CTG-3D luminescence at 96 h | 1.96 |
| O=C(/C=C/c1cccnc1)NCCCCC1CCN(C(=O)c2ccccc2)CC1 | CTG-3D luminescence at 96 h | 2.22 |
| Cc1cc(Nc2ncnc3ccc(NC4=NC(C)(C)CO4)cc23)ccc1Oc1ccn2ncnc2c1 | CTG-3D luminescence at 96 h | 1.82 |
| CCN(c1cc(C#CCN2CCOCC2)cc(C(=O)NCc2c(C)cc(C)[nH]c2=O)c1C)[C@H]1CC[C@H](N(C)CCOC)CC1 | CTG-3D luminescence at 96 h | 2.38 |
| C[C@@H]1COCCN1c1cc(C2([S@](C)(=N)=O)CC2)nc(-c2cc[nH]c3nccc2-3)n1 | CTG-3D luminescence at 96 h | 2.06 |
| C/C=C1\NC(=O)[C@H]2CSSCC/C=C/[C@H](CC(=O)N[C@H](C(C)C)C(=O)N2)OC(=O)[C@H](C(C)C)NC1=O | CTG-3D luminescence at 96 h | 2.12 |
